Molecular target: T1, human IL-23 (human, UniProt Q9NPF7 20-189; P29460 23-328)
T1 construct: also called hIL-23; human recombinant IL-23
T1 sequence (looked up) 1: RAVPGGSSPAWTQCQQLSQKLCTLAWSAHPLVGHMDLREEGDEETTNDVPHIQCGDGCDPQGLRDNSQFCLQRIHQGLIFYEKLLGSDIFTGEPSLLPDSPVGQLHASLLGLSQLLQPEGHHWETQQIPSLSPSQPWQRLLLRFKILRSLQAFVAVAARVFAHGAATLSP
T1 sequence (looked up) 2: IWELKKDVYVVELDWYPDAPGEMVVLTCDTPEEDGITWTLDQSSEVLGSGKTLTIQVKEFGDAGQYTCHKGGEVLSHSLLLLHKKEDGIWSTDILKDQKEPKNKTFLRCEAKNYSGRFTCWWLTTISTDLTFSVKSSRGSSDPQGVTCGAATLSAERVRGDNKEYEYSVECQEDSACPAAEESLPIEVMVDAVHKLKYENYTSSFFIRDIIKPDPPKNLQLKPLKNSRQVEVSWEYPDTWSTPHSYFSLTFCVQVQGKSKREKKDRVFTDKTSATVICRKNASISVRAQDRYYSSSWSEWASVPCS
Test: SPR, Adnectin captured by anti-His mAb, IL-23 injected
Experimental: All surface plasmon experiments were conducted in HBS-EP (10 mM Hepes 150 mM NaCl 3 mM EDTA 0.05% Surfactant P20) at 25° C. IL-23 was injected over anti-His mAb captured Adnectins for 2 minutes followed by a 10 minute dissociation phase. Evaluation of the binding specificity was completed using Biacore T100 evaluation software. Additional detailed methods are described in Example 4.
reportedMetric: kon (M⁻¹ s⁻¹)

[I] 1437G04 (designed binder, captured by anti-His mAb) MGVSDVPRDLEVVAATPTSLLISWGHYPLHVRYYRITYGETGGNSPVQEFTVPYYHYTATISGLKPGVDYTITVYAVTYYNEADYSQIPISINYRTEIDKPSQHHHHHH
[II] 1487H04 (designed binder, captured by anti-His mAb) MGVSDVPRDLEVVAATPTSLLISWGHYPMHVRYYRITYGETGGNSPVQEFTVPARQYTATISGLKPGVDYTITVYAVTYYQEYEYRYIPISINYRTEIDKPSQHHHHHH
Which one would you say has the larger kon value: I , or II ? The response must carry the label of the picked entry.
I
